assay: Cytostatic against human HEL cells assessed as reduction in cell growth after 3 days by coulter counter; type: cell-based
Under this convention, Y denotes CC50 at 72 h strictly below 60 µM and N denotes CC50 at 72 h at or above 60 µM.

> print(dat)
                                   compound  category.label
1  COc1cc(C#CC#Cc2cn([C@H]3C[C@H](O)[C@@H](CO)O3)c(=O)[nH]c2=O)cc(OC)c1               N
2  Nc1cccc(C#CC#Cc2cn([C@H]3C[C@H](O)[C@@H](CO)O3)c(=O)[nH]c2=O)c1               N
3  O=c1[nH]c(=O)n([C@H]2C[C@H](O)[C@@H](CO)O2)cc1/C=C/Br [BRIVUDINE]               N
4  Nc1ccn(C[C@@H](CO)OCP(=O)(O)O)c(=O)n1 [CIDOFOVIR]               N
5  CCCc1ccc(C#CC#Cc2cn([C@H]3C[C@H](O)[C@@H](CO)O3)c(=O)[nH]c2=O)cc1               Y
6  O=c1[nH]c(=O)n([C@H]2C[C@H](O)[C@@H](CO)O2)cc1C#CC#Cc1ccc([N+](=O)[O-])cc1               N
7  Nc1nc2c(ncn2COC(CO)CO)c(=O)[nH]1 [GANCICLOVIR]               N
8  O=c1[nH]c(=O)n([C@H]2C[C@H](O)[C@@H](CO)O2)cc1C#CC#Cc1ccc(OC(F)(F)F)cc1               Y

====

// CC50 at 72 h lookup, one value per entry
assay: Cytostatic against human HEL cells assessed as reduction in cell growth after 3 days by coulter counter; assay type: cell-based
TEST READOUT: CC50 at 72 h (µM)

> print(dat)
                                    compound  test.readout  uom  qual  numeric.readout
 1  O=c1[nH]c(=O)n([C@H]2C[C@H](O)[C@@H](CO)O2)cc1C#CC#Cc1ccccn1  CC50 at 72 h   µM     =              1.5
 2  O=c1[nH]c(=O)n([C@H]2C[C@H](O)[C@@H](CO)O2)cc1C#CC#CCO  CC50 at 72 h   µM     >              100
 3  O=c1[nH]c(=O)n([C@H]2C[C@H](O)[C@@H](CO)O2)cc1C#CC#CCC1CCCC1  CC50 at 72 h   µM     =               89
 4  O=c1[nH]c(=O)n([C@H]2C[C@H](O)[C@@H](CO)O2)cc1C#CC#CC1CC1  CC50 at 72 h   µM     >              100
 5              Nc1nc2c(ncn2COCCO)c(=O)[nH]1  CC50 at 72 h   µM     =              470
 6  Cc1cc(C#CC#Cc2cn([C@H]3C[C@H](O)[C@@H](CO)O3)c(=O)[nH]c2=O)ccc1F  CC50 at 72 h   µM     =               45
 7  Nc1ccc(C#CC#Cc2cn([C@H]3C[C@H](O)[C@@H](CO)O3)c(=O)[nH]c2=O)cc1  CC50 at 72 h   µM     >              100
 8  CCCCCCc1ccc(C#CC#Cc2cn([C@H]3C[C@H](O)[C@@H](CO)O3)c(=O)[nH]c2=O)cc1  CC50 at 72 h   µM     =               35
 9  CC(O)CC#CC#Cc1cn([C@H]2C[C@H](O)[C@@H](CO)O2)c(=O)[nH]c1=O (stereo not given in full)  CC50 at 72 h   µM     =              9.5
10  O=c1[nH]c(=O)n([C@H]2C[C@H](O)[C@@H](CO)O2)cc1C#CC#Cc1ccccc1  CC50 at 72 h   µM     =              100

====

test system: Human alphaherpesvirus 3; experiment: Antiviral activity against thymidine kinase-positive Varicella-zoster virus OKA infected in HEL cells assessed as reduction in virus-induced cytopathicity; assay type: functional, cell-based; details: Human alphaherpesvirus 3, strain Oka vaccine
pEC50: −log10 of the molar value.
// pEC50 lookup, one value per entry
TEST READOUT: pEC50

> print(dat)
                                   compound  qual  numeric.readout
1  COc1cc(C#CC#Cc2cn([C@H]3C[C@H](O)[C@@H](CO)O3)c(=O)[nH]c2=O)cc(OC)c1     =             4.41
2  Nc1cccc(C#CC#Cc2cn([C@H]3C[C@H](O)[C@@H](CO)O3)c(=O)[nH]c2=O)c1     <             4.00
3  CC(O)CC#CC#Cc1cn([C@H]2C[C@H](O)[C@@H](CO)O2)c(=O)[nH]c1=O (stereo partly drawn)     =             4.70
4  O=c1[nH]c(=O)n([C@H]2C[C@H](O)[C@@H](CO)O2)cc1C#CC#Cc1ccc([N+](=O)[O-])cc1     <             4.70
5  CCCc1ccc(C#CC#Cc2cn([C@H]3C[C@H](O)[C@@H](CO)O3)c(=O)[nH]c2=O)cc1     =             5.43
6  CCCCCCc1ccc(C#CC#Cc2cn([C@H]3C[C@H](O)[C@@H](CO)O3)c(=O)[nH]c2=O)cc1     =             5.06
7  Nc1ccc(C#CC#Cc2cn([C@H]3C[C@H](O)[C@@H](CO)O3)c(=O)[nH]c2=O)cc1     <             4.00
8  O=c1[nH]c(=O)n([C@H]2C[C@H](O)[C@@H](CO)O2)cc1C#CC#Cc1ccccc1     <             4.70

====

system: Human alphaherpesvirus 3; assay: Antiviral activity against thymidine kinase-deficient Varicella-zoster virus 07/1 infected in HEL cells assessed as reduction in virus-induced cytopathicity; format: functional, organism-based; conditions: Human alphaherpesvirus 3, 07/1, HEL
pEC50: −log10 of the molar value.
// pEC50 lookup, one value per entry
TEST READOUT: pEC50

> print(dat)
                                    compound  result
 1  O=c1[nH]c(=O)n([C@H]2C[C@H](O)[C@@H](CO)O2)cc1/C=C/Br    4.13
 2  Nc1ccc(C#CC#Cc2cn([C@H]3C[C@H](O)[C@@H](CO)O3)c(=O)[nH]c2=O)cc1  < 4.00
 3              Nc1nc2c(ncn2COCCO)c(=O)[nH]1    4.04
 4  Nc1cccc(C#CC#Cc2cn([C@H]3C[C@H](O)[C@@H](CO)O3)c(=O)[nH]c2=O)c1  < 4.00
 5  O=c1[nH]c(=O)n([C@H]2C[C@H](O)[C@@H](CO)O2)cc1C#CC#CCO  < 4.00
 6  O=c1[nH]c(=O)n([C@H]2C[C@H](O)[C@@H](CO)O2)cc1C#CC#Cc1ccc(OC(F)(F)F)cc1  < 5.40
 7  CCCc1ccc(C#CC#Cc2cn([C@H]3C[C@H](O)[C@@H](CO)O3)c(=O)[nH]c2=O)cc1    4.85
 8  O=c1[nH]c(=O)n([C@H]2C[C@H](O)[C@@H](CO)O2)cc1C#CC#CCC1CCCC1  < 4.00
 9  CCCCCCc1ccc(C#CC#Cc2cn([C@H]3C[C@H](O)[C@@H](CO)O3)c(=O)[nH]c2=O)cc1    5.02
10  O=c1[nH]c(=O)n([C@H]2C[C@H](O)[C@@H](CO)O2)cc1C#CC#Cc1ccccc1  < 4.70
11  COc1cc(C#CC#Cc2cn([C@H]3C[C@H](O)[C@@H](CO)O3)c(=O)[nH]c2=O)cc(OC)c1  < 4.00
12  O=c1[nH]c(=O)n([C@H]2C[C@H](O)[C@@H](CO)O2)cc1C#CC#CC1CC1  < 4.00
13  Cc1cc(C#CC#Cc2cn([C@H]3C[C@H](O)[C@@H](CO)O3)c(=O)[nH]c2=O)ccc1F  < 4.70
14  O=c1[nH]c(=O)n([C@H]2C[C@H](O)[C@@H](CO)O2)cc1C#CC#Cc1ccccn1    4.70
15  CC(O)CC#CC#Cc1cn([C@H]2C[C@H](O)[C@@H](CO)O2)c(=O)[nH]c1=O (stereo partly specified)  < 4.00
16  O=c1[nH]c(=O)n([C@H]2C[C@H](O)[C@@H](CO)O2)cc1C#CC#Cc1ccc([N+](=O)[O-])cc1  < 4.70
